system: LXRa:RXRa (NR concentration 270 nM, RXRa partner concentration 90 nM); experiment: PBM binding z-score (relative to random genomic background probes); higher = stronger binding; sequences stand for … in GC…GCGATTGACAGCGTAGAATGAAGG
measurementLabel: PBM binding z-score
I only need the number, thanks.

Kindly state the measured PBM binding z-score obtained for TCTAGTTGGTCACAGGTCACACACTCGAAATGCG with LXRa:RXRa (NR concentration 270 nM, RXRa partner concentration 90 nM).
2.92

Lab request: please report PBM binding z-score under test system LXRa:RXRa (NR concentration 270 nM, RXRa partner concentration 90 nM) for CGTCCAACGTCAAAGGTCAGTGAAGAGATGACGG
3.2

Request - read-out PBM binding z-score | tested on LXRa:RXRa (NR concentration 270 nM, RXRa partner concentration 90 nM) | sequence GCTGCTAGGTCAGGTTGGTCAGCAAACGGGTACG
0.793

Tell me reported PBM binding z-score for AGTCAAAGTTCACTAGGTAACGTAGGATTCAGCT , tested with LXRa:RXRa (NR concentration 270 nM, RXRa partner concentration 90 nM).
4.93

Any idea what PBM binding z-score came out for CCAGACAGGTGAAAGGCAACTCAGTCTGGTACGC on LXRa:RXRa (NR concentration 270 nM, RXRa partner concentration 90 nM)?
0.0112

Find PBM binding z-score (LXRa:RXRa (NR concentration 270 nM, RXRa partner concentration 90 nM)) for the entry TCTATTAGTTGATTAGTGCAACCGAAACAGCGGA
0.676

Given the entry TCAGACAGGTGAAGGTAACTCAAGTACGCAGTCG , what PBM binding z-score was observed with LXRa:RXRa (NR concentration 270 nM, RXRa partner concentration 90 nM)?
2.77

Any idea what PBM binding z-score came out for CAAACTAGGTCAAGAGGTCACAGTCCGCTTCCCG on LXRa:RXRa (NR concentration 270 nM, RXRa partner concentration 90 nM)?
5.84

Param readout = PBM binding z-score; param system = LXRa:RXRa (NR concentration 270 nM, RXRa partner concentration 90 nM); param query = AGAACGAAGGCAATGAGTTGATAGCACGGGTGGC ; response: value
-0.976

# returns recorded PBM binding z-score (system: LXRa:RXRa (NR concentration 270 nM, RXRa partner concentration 90 nM)) for ATCTCTAGGTAAGACTCATTTCAGTGAAGAACGC
0.373

Give LXRa:RXRa (NR concentration 270 nM, RXRa partner concentration 90 nM) PBM binding z-score for TCTAGTTGGTCACGGAGGTGACACACGACGGGTA
0.805

// fetch LXRa:RXRa (NR concentration 270 nM, RXRa partner concentration 90 nM) PBM binding z-score for CCGACTGGGGAAAGGTTACCATAACGCACAGCCA
1.86

Given the entry CAAACTAGGTCACTGGAAGGTCAAAGTCCGCATG , what PBM binding z-score was observed with LXRa:RXRa (NR concentration 270 nM, RXRa partner concentration 90 nM)?
5.41

Please state recorded PBM binding z-score (tested on LXRa:RXRa (NR concentration 270 nM, RXRa partner concentration 90 nM)) of GCTAGCAGGCCATTTGGGTCGCTCAATGACGGGC
-0.842

Recall the recorded PBM binding z-score for CTACCAAGATGAACAAGGTCGTTGATTACTATTC with LXRa:RXRa (NR concentration 270 nM, RXRa partner concentration 90 nM) and state it.
0.783

For LXRa:RXRa (NR concentration 270 nM, RXRa partner concentration 90 nM), provide PBM binding z-score of ACAGACAGGTGATGAAGGTCACTCAGGCTATCAT please.
2.17

Give the reported PBM binding z-score for CGTAGTTGGTCAGGAGGTCACACACCGGATATGA (system: LXRa:RXRa (NR concentration 270 nM, RXRa partner concentration 90 nM)).
3.49

Please tell me: PBM binding z-score of ATCGAAAGGTCGAGGGGAGTATAGAGAAAGGGAA , system LXRa:RXRa (NR concentration 270 nM, RXRa partner concentration 90 nM)?
3.49

Kindly state the measured PBM binding z-score obtained for CCTACTGGGCCATTAGGTCATTGATATCAACGTT with LXRa:RXRa (NR concentration 270 nM, RXRa partner concentration 90 nM).
0.977

What value of PBM binding z-score on LXRa:RXRa (NR concentration 270 nM, RXRa partner concentration 90 nM) does CCGAGTAGGTTCTGGGGCATTCAGGCAACGGTGA have?
-0.351

What PBM binding z-score appears in the records for this sequence with LXRa:RXRa (NR concentration 270 nM, RXRa partner concentration 90 nM)? ACTCGAAGGACAAAGGTCAGAGCTACGCCAGTGA
3.98

So what PBM binding z-score did CCTAGCACGCCAATCTGGGTCACTCAAGGCTTGA get with LXRa:RXRa (NR concentration 270 nM, RXRa partner concentration 90 nM)?
0.503

Query for LXRa:RXRa (NR concentration 270 nM, RXRa partner concentration 90 nM): what PBM binding z-score does the record show for CCGACTGGCGCAGAAAGGTTACCATACCATCCGG ?
0.658

Can you look up PBM binding z-score on LXRa:RXRa (NR concentration 270 nM, RXRa partner concentration 90 nM) for ACTATTAGTTGAGACGAGGGTAACCGATAGGTTG ?
0.035

Record lookup: for LXRa:RXRa (NR concentration 270 nM, RXRa partner concentration 90 nM), what PBM binding z-score belongs to GCTGCTAGGTGAGGTTGGTCAGCTAACGGGTACG ?
-0.442

Notebook entry, LXRa:RXRa (NR concentration 270 nM, RXRa partner concentration 90 nM) assay: PBM binding z-score of GGGACGAGGGCATTCGAGTTGATAGCATGGCGAT = ?
1.84

---

tested on: PPARg:RXRa 90nM:30nM, anti-RXR (NR concentration 90 nM, RXRa partner concentration 30 nM); experiment: PBM binding z-score (relative to random genomic background probes); higher = stronger binding; sequences stand for … in GC…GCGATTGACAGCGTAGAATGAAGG
Would you mind telling me the reported PBM binding z-score of each entry?
Enter the number alone.

Recorded PBM binding z-score for TCGAGTAGGTTGGGGGCATTCAGAATGGCGTCGA , please?
2.28

What PBM binding z-score value was documented for this sequence, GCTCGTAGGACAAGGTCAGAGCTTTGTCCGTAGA ?
0.455

May I ask what PBM binding z-score has been recorded for AGAATGAGGTTATACGTAGATCAGGGAAGAAAGT ?
1.48

Item CAAACTAGGTCAAGCGGTCAAAGTCCGCTTCCCG has what recorded PBM binding z-score?
7.38

Give the measured PBM binding z-score of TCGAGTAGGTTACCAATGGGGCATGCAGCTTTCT .
1.1

Could you share which PBM binding z-score value was measured for ACACCAAGGTGATCGTGAGGTCGTTGATACTAAC ?
0.0177

---

Would you mind telling me the reported PBM binding z-score of each entry?
system: VDR homodimer (NR concentration 270 nM); assay: PBM binding z-score (relative to random genomic background probes); higher = stronger binding; sequences stand for … in GC…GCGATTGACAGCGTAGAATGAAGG
# print the numeric value only

Given CAAACTAGGTAACGAAAGGTCAAAGTCGAATGAC , state its recorded PBM binding z-score.
2.25

For the sequence shown here, CCTTACGGGTCACTCCAGCTTATAGCATCGGAGT , give the reported PBM binding z-score.
0.747

Would you kindly share the measured PBM binding z-score for TAGGCTAGGTCATGGGCCAGTATACCACGCGAAC ?
0.234

Give the measured PBM binding z-score of CAGTCTAGGTCAGGGCCAGTATAGGAGGAACGTT .
0.322

Value lookup for PBM binding z-score; key = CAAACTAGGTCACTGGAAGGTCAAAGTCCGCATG
3.86

Look at this sequence and give its reported PBM binding z-score. CGTCCAAGGTCATAGGAGGTCAGTGTAGACAGAT
4.71

---

test system: PPARg:RXRa IVT, anti-PPARg (NR concentration 270 nM, RXRa partner concentration 90 nM); assay: PBM binding z-score (relative to random genomic background probes); higher = stronger binding; sequences stand for … in GC…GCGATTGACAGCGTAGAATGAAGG
Assign class by PBM binding z-score: not lower than 0.3 means Condition met; lower than 0.3 means Condition not met.

Hi team, for TCTAGTTGGTCAGGGAGGTCACACACGACGGGTA , is the recorded PBM binding z-score at or above 0.3?
Condition met

Evaluate GGAAGGAGGGCATTCGAGTTGATAGCATGGCGAT : PBM binding z-score at minimum 0.3?
Condition met

# check: PBM binding z-score of CGAACGAGGGCGTGAGTTGATAGCAAATGCCGAT is greater than or equal to 0.3
Condition not met

For this sequence, is measured PBM binding z-score 0.3 or higher? CCTTGCAGGCCAATCTGGGTCACTCAAGGCTTGA
Condition met

Is it the case that TCATATAGGTAAATGCTAGATGAAAGTCCGATCT has PBM binding z-score reaching or exceeding 0.3?
Condition met

PBM binding z-score >= 0.3 for CGAACGTGGGCATGAGTTGATAGCAAATGCCGAT ?
Condition not met

Is PBM binding z-score for GGTACAGGGTCAGCTAGAGGCCAGAGTATGGAAA at or above 0.3?
Condition met

I'd appreciate it if you could say whether ACAGACAGGTGCTGAAGGTAACTCAGGCTATCAT has PBM binding z-score at least equal to 0.3.
Condition not met

Item GATACAGGGTCAGCTAGAGGCCAGCGTATGGAAA with PBM binding z-score of 0.3 or above?
Condition met

# check: PBM binding z-score of TAGCCTACGTCATGCGGGCCAGTATAGTGTCGGC is greater than or equal to 0.3
Condition not met

State whether the measured PBM binding z-score reaches 0.3, counting equality as reaching it, for CCGACTGGGGAAGAAAGGTTACCATACCATCCGG
Condition met

Does CGTTAAAGTTCAAGGTAACGTAACAGAAAGCAGC have a reported PBM binding z-score of at least 0.3?
Condition met
